- Tested target: Human CD73 (Homo sapiens, UniProt P21589)
- Construct: purchased R&D Systems; host or cells: CHO cells
- Sequence (P21589 27-549): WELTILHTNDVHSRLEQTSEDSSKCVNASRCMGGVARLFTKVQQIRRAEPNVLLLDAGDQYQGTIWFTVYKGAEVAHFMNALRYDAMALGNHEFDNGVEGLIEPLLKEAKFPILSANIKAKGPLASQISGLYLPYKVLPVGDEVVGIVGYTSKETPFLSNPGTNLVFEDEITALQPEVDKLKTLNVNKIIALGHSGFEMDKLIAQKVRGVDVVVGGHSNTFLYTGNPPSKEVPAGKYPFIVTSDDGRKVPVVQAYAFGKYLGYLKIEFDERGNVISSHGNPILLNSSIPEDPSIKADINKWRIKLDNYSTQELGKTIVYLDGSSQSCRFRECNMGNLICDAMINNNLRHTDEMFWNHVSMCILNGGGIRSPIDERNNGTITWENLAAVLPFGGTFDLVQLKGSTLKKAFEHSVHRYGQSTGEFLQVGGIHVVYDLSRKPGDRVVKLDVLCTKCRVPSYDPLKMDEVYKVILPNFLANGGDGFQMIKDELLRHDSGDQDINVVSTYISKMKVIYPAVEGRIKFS
- Procedure details: CD73 Enzyme Assay
- Assay type: biochemical
- Test context: 0.25 nM hCD73, 25 μM AMP, kinetic read at 360 nm; read-out: CD73 Enzyme Assay IC50
Readout kind: IC50

Q. Entry under review: N#Cc1nc(N2CCCCC2)c2ccn([C@@H]3O[C@H](COCP(=O)(O)O)[C@@H](O)[C@H]3O)c2n1 . Reported IC50?
A. < 10 nM

Q. Entry under review: O=P(O)(O)COC[C@H]1O[C@@H](n2cnc3c(O)ncnc32)[C@H](O)[C@@H]1O . Reported IC50?
A. > 1000 nM

Q. Entry under review: O=P(O)(O)COC[C@H]1O[C@@H](n2ccc3c(N4CCC4)nc(Cl)nc32)[C@H](O)[C@@H]1O . Reported IC50?
A. 10 to 100 nM

----------
Listing: pIC50 of selected compounds
- Tested target: Human CD73 (Homo sapiens, UniProt P21589)
- Construct: purchased R&D Systems; host or cells: CHO cells
- Sequence (P21589 27-549): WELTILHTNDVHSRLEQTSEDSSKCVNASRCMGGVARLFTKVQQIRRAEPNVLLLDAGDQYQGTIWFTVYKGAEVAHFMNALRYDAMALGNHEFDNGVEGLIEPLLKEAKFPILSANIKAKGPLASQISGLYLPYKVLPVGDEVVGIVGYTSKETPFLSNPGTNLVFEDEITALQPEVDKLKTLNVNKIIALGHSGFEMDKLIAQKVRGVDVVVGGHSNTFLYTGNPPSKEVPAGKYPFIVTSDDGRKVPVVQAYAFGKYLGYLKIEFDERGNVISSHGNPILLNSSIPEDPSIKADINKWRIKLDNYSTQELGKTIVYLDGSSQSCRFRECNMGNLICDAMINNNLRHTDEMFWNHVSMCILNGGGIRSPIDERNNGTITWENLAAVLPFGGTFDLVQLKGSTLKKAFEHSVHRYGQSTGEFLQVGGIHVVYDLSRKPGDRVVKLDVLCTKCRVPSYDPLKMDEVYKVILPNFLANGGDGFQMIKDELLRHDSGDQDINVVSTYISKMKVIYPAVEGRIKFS
- Procedure details: CD73 Enzyme Assay
- Type: biochemical
- Test context: 0.25 nM hCD73, 25 μM AMP, kinetic read at 360 nm; read-out: CD73 Enzyme Assay IC50
pIC50: −log10 of the molar value.

Q. Look up pIC50 with Human CD73 (Homo sapiens, UniProt P21589) for this compound: N#Cc1nc(NC2CCCC2)c2c(C#N)cn([C@@H]3O[C@H](COCP(=O)(O)O)[C@@H](O)[C@H]3O)c2n1
A. 6.00 to 7.00

Q. Look up pIC50 with Human CD73 (Homo sapiens, UniProt P21589) for this compound: C[C@H](Nc1nc(Cl)nc2c1ccn2[C@@H]1O[C@H](COCP(=O)(O)O)[C@@H](O)[C@H]1O)c1cccc(F)c1
A. > 8.00

Q. Look up pIC50 with Human CD73 (Homo sapiens, UniProt P21589) for this compound: N#Cc1nc(N2CC3CCCC3C2)c2ccn([C@@H]3O[C@H](CS(=O)(=O)CP(=O)(O)O)[C@@H](O)[C@H]3O)c2n1 (stereo partly drawn)
A. > 8.00

----------
- Tested target: Human CD73 (Homo sapiens, UniProt P21589)
- Construct: purchased R&D Systems; host or cells: CHO cells
- Sequence (P21589 27-549): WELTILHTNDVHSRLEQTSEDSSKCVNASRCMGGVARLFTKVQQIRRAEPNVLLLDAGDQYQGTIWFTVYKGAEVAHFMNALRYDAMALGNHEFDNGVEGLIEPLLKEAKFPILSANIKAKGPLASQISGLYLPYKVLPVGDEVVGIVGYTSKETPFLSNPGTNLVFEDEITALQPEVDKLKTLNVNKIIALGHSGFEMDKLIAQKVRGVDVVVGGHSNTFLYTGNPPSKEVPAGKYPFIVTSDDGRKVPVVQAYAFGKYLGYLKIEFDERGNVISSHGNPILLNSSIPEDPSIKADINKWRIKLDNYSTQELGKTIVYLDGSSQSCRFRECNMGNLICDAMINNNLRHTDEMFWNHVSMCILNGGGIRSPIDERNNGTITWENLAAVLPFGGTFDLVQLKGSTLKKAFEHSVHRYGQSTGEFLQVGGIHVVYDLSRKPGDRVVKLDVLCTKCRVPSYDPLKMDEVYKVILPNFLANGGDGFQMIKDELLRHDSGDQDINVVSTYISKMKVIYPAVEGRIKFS
- Procedure details: CD73 Enzyme Assay
- Format: biochemical
- Test context: 0.25 nM hCD73, 25 μM AMP, kinetic read at 360 nm; read-out: CD73 Enzyme Assay IC50
Readout kind: IC50

Example entries and their recorded answers appear below.
molecule=O=P(O)(O)CSC[C@H]1O[C@@H](n2cnc3c(NCc4ccccc4)ncnc32)[C@H](O)[C@@H]1O observed_value="> 1 µM"
molecule=N#Cc1ncnc2c1ncn2[C@@H]1O[C@H](COCP(=O)(O)O)[C@@H](O)[C@H]1O observed_value="> 1 µM"
molecule=O=P(O)(O)COC[C@H]1O[C@@H](n2cnc3c(NC4CC4)ncnc32)[C@H](O)[C@@H]1O observed_value="> 1 µM"
molecule=Cc1ccc([C@@H](C)Nc2nc(Cl)nc3c2ccn3[C@@H]2O[C@H](COCP(=O)(O)O)[C@@H](O)[C@H]2O)cc1 observed_value="< 0.01 µM"
molecule=O=P(O)(O)COC[C@H]1O[C@@H](n2ccc3c(NC4CCCC4)nc(OCCCO)nc32)[C@H](O)[C@@H]1O observed_value="0.01 to 0.1 µM"
molecule=O=P(O)(O)COC[C@H]1O[C@@H](n2ccc3c(C4CCCC4)nc(Cl)nc32)[C@H](O)[C@@H]1O observed_value="0.01 to 0.1 µM"
molecule=O=P(COC[C@H]1O[C@@H](n2ccc3c(NC4CCCC4)nc(Cl)nc32)[C@H](O)[C@@H]1O)(OCC(F)(F)F)OCC(F)(F)F observed_value="> 1 µM"
molecule=CC(C)Oc1ncnc2c1ncn2[C@@H]1O[C@H](COCP(=O)(O)O)[C@@H](O)[C@H]1O observed_value="> 1 µM"
molecule=C[C@@H](Nc1nc(C#N)nc2c1ccn2[C@@H]1O[C@H](COCP(=O)(O)O)[C@@H](O)[C@H]1O)c1ccc(C(F)(F)F)cc1 observed_value="< 0.01 µM"
molecule=N#Cc1nc(N2CCC2)c2ccn([C@@H]3O[C@H](COCP(=O)(O)O)[C@@H](O)[C@H]3O)c2n1 observed_value="0.01 to 0.1 µM"

Note: attention shifts to another entry.
Q. Look up IC50 with Human CD73 (Homo sapiens, UniProt P21589) for this molecule: CN(C)c1nc(C#N)nc2c1ccn2[C@@H]1O[C@H](COCP(=O)(O)O)[C@@H](O)[C@H]1O
A. 0.01 to 0.1 µM

----------
- Tested target: Human CD73 (Homo sapiens)
- Construct: purchased R&D Systems; host or cells: CHO cells
- Procedure details: CD73 Enzyme Assay
- Type: biochemical
- Test context: 0.25 nM hCD73, 25 μM AMP, kinetic read at 360 nm; read-out: CD73 Enzyme Assay IC50
pIC50: −log10 of the molar value.
Readout kind: pIC50

Example entries and their recorded answers appear below.
compound="CC(O)COc1nc(NC2CCCC2)c2ccn([C@@H]3O[C@H](COCP(=O)(O)O)[C@@H](O)[C@H]3O)c2n1 (stereo partly shown)" observed_value="> 8.00"
compound=CN(C)c1nc(Cl)nc2c1ccn2[C@@H]1O[C@H](COCP(=O)(O)O)[C@@H](O)[C@H]1O observed_value="> 8.00"
compound=C[C@H](Nc1nc(Cl)nc2c1ccn2[C@@H]1O[C@H](COCP(=O)(O)O)[C@@H](O)[C@H]1O)c1ccc(F)cn1 observed_value="> 8.00"
compound="O=P(O)(O)COC[C@H]1O[C@@H](n2ncc3c(NC4CC5CC5C4)nc(Cl)nc32)[C@H](O)[C@@H]1O (stereo partly shown)" observed_value="> 8.00"
compound=C[C@@H](Nc1nc(C#N)nc2c1ccn2[C@@H]1O[C@H](COCP(=O)(O)O)[C@@H](O)[C@H]1O)c1ccc(C#N)cc1 observed_value="7.00 to 8.00"
compound=CC(C)(C)C(=O)OCOP(=O)(COC[C@H]1O[C@@H](n2ccc3c(NC4CCCC4)nc(Cl)nc32)[C@H](O)[C@@H]1O)OCOC(=O)C(C)(C)C observed_value="< 6.00"
compound=O=P(O)(O)COC[C@H]1O[C@@H](n2ccc3c(NC4CCCC4)nc(Oc4cccnc4)nc32)[C@H](O)[C@@H]1O observed_value="6.00 to 7.00"
compound=C[C@@H](Nc1nc(Cl)nc2c1ccn2[C@@H]1O[C@H](CS(=O)(=O)CP(=O)(O)O)[C@@H](O)[C@H]1O)c1ccc(Cl)cc1 observed_value="> 8.00"
compound="O=P(O)(O)COC[C@H]1O[C@@H](n2ncc3c(N4CC5CC5C4)nc(Cl)nc32)[C@H](O)[C@@H]1O (stereo partly shown)" observed_value="> 8.00"
compound=CC(C)Nc1nc(C#N)nc2c1ccn2[C@@H]1O[C@H](COCP(=O)(O)O)[C@@H](O)[C@H]1O observed_value="7.00 to 8.00"

Q. Entry under review: O=P(O)(O)COC[C@H]1O[C@@H](n2ccc3c(NC4CCCC4)nc(I)nc32)[C@H](O)[C@@H]1O . Reported pIC50?
A. > 8.00
